experiment: compound effects on multiple myeloma cell viability – MM1S, calcein-AM fluorescence, 48 h, basal, profiling panel (AID 1165); conditions: higher = more signal; also: test concentration not given here
# if value of z-score reaches -2, tag met; if it stays below, tag not met

Here's what some known entries look like.
compound="CN1CCC(c2ccc(CO)cc2)=CC1c1cccs1 (stereo not drawn)" category="not met"
compound="CCCc1cc2c(n1Cc1ccc(C)cc1)C(C)C1CN(C(=O)c3ccccc3)C(C)(C(=O)OC)C21 (stereo not drawn)" category="not met"
compound=c1ccc(-c2cc3c(nc2-c2ccccc2)CCNC3)cc1 category=met
compound="OCc1ccc(C2=CC(C3CC3)N(Cc3sc4ccccc4c3Cl)CC2)cc1 (stereo not drawn)" category="not met"

Form field: z-score at least -2? Entry: `CCOC(=O)[C@H]1CC=C2C(=O)Oc3ccccc3[C@@H]21`
met

For this compound, is measured z-score -2 or higher? `COC(=O)[C@H]1[C@H](c2ccccc2)C(=O)[C@]2(O)c3ccccc3O[C@@]12c1ccccc1`
met

Say whether `C[C@@H]1Cc2c(cnc3c2CN(C)CC3)CO1` shows z-score of -2 or more.
met

====

test: plasmodial surface anion channel blockers, osmotic lysis – cell-based, P. falciparum Indochina, OD700, 1 h, primary screen (AID 1154); settings: P. falciparum Indochina infected RBC osmotic lysis; higher = more signal, called active from +8 up or from −8 down unless noted
Activity calls are given as the source filed them.
Endpoint Name: z-score

compound=COC(=O)[C@@]1(Cc2ccc(F)cc2)[C@H]2c3cc(C(=O)N(C)C)[nH]c3C[C@H]2CN1C(=O)c1ccccc1 endpoint_name=z-score recorded_result="1.37 [setting not given] (inactive)"
compound="CCCc1cc2c(n1Cc1cccc(Cl)c1)C(C)C1CN(C(=O)c3ccccc3)C(C)(C(=O)OC)C21 (centres undefined)" endpoint_name=z-score recorded_result="2.02 (inactive)"
compound="CCCc1cc2c(n1CCO)C(C)C1CN(C(=O)c3ccccc3)C(C)(C(=O)OC)C21 (centres undefined)" endpoint_name=z-score recorded_result="2.33 (inactive)"
compound="CN1CCC(c2ccc(CO)cc2)=CC1c1cccs1 (centres undefined)" endpoint_name=z-score recorded_result="5.23 (inactive)"
compound=COc1cc2c(cc1O)C=[N+](C)CC2 endpoint_name=z-score recorded_result="2.39 (inactive)"
compound="O=P(c1ccccc1)(c1ccccc1)N1CC2(CC2)CC(O)(c2ccccc2)C1 (centres undefined)" endpoint_name=z-score recorded_result="0.492 (inactive)"

Sample `COC(=O)[C@H]1[C@H](c2ccccc2)C(=O)[C@]2(O)c3ccccc3O[C@@]12c1ccccc1` ; z-score observed: -0.446 (inactive)

Given item OCc1ccc(C2=CC(C3CC3)N(Cc3sc4ccccc4c3Cl)CC2)cc1 (centres undefined) , the value recorded as its z-score is 13.6 (active)

Form field z-score, entry CN1CCC(c2ccc(CO)cc2)=CC1C1CC1 (centres undefined) : 0.899 (inactive)

get_value(item= `COC(=O)[C@H]1[C@@H](O)[C@@]2(O)c3c(OC)cc(OC)cc3O[C@@]2(c2ccc(OC)cc2)[C@@H]1c1ccccc1` , readout=z-score) returns 0.253 (inactive)

The recorded z-score for `COC(=O)[C@@]1(Cc2ccccc2)[C@H]2c3cc(C(=O)N(C)C)[nH]c3C[C@H]2CN1C(=O)c1ccccc1` is 1.11 (inactive)
